protocol.description: refractive index (Na D-line) (dimensionless)
assay.setup: 318.15 K; 101.33 kPa; Liquid; Standard Abbe refractometry
metric.name: refractive index

CCCCO	1.39
CCO	1.3548
CCCO	1.3757
CCCC[n+]1cccc(C)c1.F[B-](F)(F)F [1-butyl-3-methylpyridinium tetrafluoroborate]	1.4422
CO	1.319

----------
protocol.description: refractive index (Na D-line) (dimensionless)
assay.setup: 298.15 K; 101.33 kPa; Liquid; Standard Abbe refractometry
metric.name: refractive index

CCCC[n+]1cccc(C)c1.F[B-](F)(F)F [1-butyl-3-methylpyridinium tetrafluoroborate]	1.4473
CCCCO	1.3968
CCO	1.36
CO	1.3268
CCCO	1.3831

----------
assay.setup: 298.15 K; 101.33 kPa; Liquid; Vibrating tube method
metric.name: mass density (kg/m3)

CCCCO	805.95
CCCO	799.7
CCO	785.15
CO	786.44

----------
assay.setup: 318.15 K; 101.33 kPa; Liquid; Vibrating tube method
metric.name: mass density (kg/m3)

CO	768.04
CCCCO	790.27
CCCO	783.16
CCO	767.57
